Assay: in vitro
Details: human, uninfected MT-4 cells
Metric Name: CC50 at 5 days (µM)
Answers are plain numbers, in µM.

# batch: return CC50 at 5 days for each of the 2 molecules below
1. COC1=NO[C@@]2(CC[C@H](C)N3C[C@H]2n2cc(C(=O)NCc4ccc(F)cc4F)c(=O)c(O)c2C3=O)C1
2. CC1=NO[C@@]2(CC[C@H](C)N3C[C@H]2n2cc(C(=O)NCc4ccc(F)cc4F)c(=O)c(O)c2C3=O)O1

Response given:
1. 34.1
2. 20

* * *

Test: in vitro
Details: human, uninfected MT-4 cells
For each of the compounds below, state its CC50 at 5 days.

Worked cases, answers included:
[[record]]
compound = "C[C@H]1CC[C@]2(CC(=O)N(Cc3ccccn3)O2)[C@H]2CN1C(=O)c1c(O)c(=O)c(C(=O)NCc3c(F)cc(F)cc3F)cn12 [Example 159]"
result = "≥ 50 µM"

[[record]]
compound = "CC1=NO[C@@]2(CC[C@H](C)N3C[C@H]2n2cc(C(=O)NCc4ccc(F)cc4F)c(=O)c(O)c2C3=O)N1C [Example 149a]"
result = "≥ 50 µM"


We now examine a further compound.
Challenge: Given C[C@H]1CC[C@]2(CC(C(F)(F)F)=NO2)[C@H]2CN1C(=O)c1c(O)c(=O)c(C(=O)NCc3c(F)cc(F)cc3F)cn12 [Example 73] , state its recorded CC50 at 5 days.
Response given: 31.2 µM

* * *

Test system: pLAI reporter virus
Assay: microbe, parasite or virus in culture
Assay type: cell-based, HIV
Conditions: Human immunodeficiency virus 1, MT4, 72 h, read-out: RLUC CCM EC50
Metric Name: pEC50
Answers are plain numbers, as −log10 of the molar value.

Worked cases, answers included:
[[record]]
compound = "C[C@H]1CCC[C@H]2CN1C(=O)c1c(O)c(=O)c(C(=O)NCc3ccc(F)cc3F)cn12 [Reference Compound D]"
readout_number = 9.66

[[record]]
compound = "CC1=NO[C@]2(CC[C@H](C)N3C[C@H]2n2cc(C(=O)NCc4c(F)cc(F)cc4F)c(=O)c(O)c2C3=O)C1 [Example 4]"
readout_number = 8.52


# batch: return pEC50 for each of the 2 compounds below
1. C[C@H]1CC[C@]2(CC(OC3COC3)=NO2)[C@H]2CN1C(=O)c1c(O)c(=O)c(C(=O)NCc3ccc(F)cc3F)cn12 [Example 45]
2. C[C@H]1CC[C@]2(CC(Br)=NO2)[C@H]2CN1C(=O)c1c(O)c(=O)c(C(=O)NCc3ccc(F)cc3F)cn12 [Example 44]

Response given:
1: 9.40; 2: 10.00

# batch: return pEC50 for each of the 5 compounds below
1. CC1=NO[C@]2(CC[C@H](C)N3C[C@H]2n2cc(C(=O)NCc4ccc(F)cc4F)c(=O)c(O)c2C3=O)C1=O [Example 25]
2. CC1=NCC2(CC[C@H](C)N3C[C@H]2n2cc(C(=O)NCc4ccc(F)cc4F)c(=O)c(O)c2C3=O)O1 (stereo partly drawn) [Example 56]
3. CCC1=NO[C@@]2(CC[C@H](C)N3C[C@H]2n2cc(C(=O)NCc4c(F)cc(F)cc4F)c(=O)c(O)c2C3=O)O1 [Example 93]
4. C[C@@H](F)C1=NO[C@@]2(CC[C@H](C)N3C[C@H]2n2cc(C(=O)NCc4c(F)cc(F)cc4F)c(=O)c(O)c2C3=O)C1 [Example 70]
5. C[C@H]1CC[C@]2(CC(n3cnnc3)=NO2)[C@H]2CN1C(=O)c1c(O)c(=O)c(C(=O)NCc3c(F)cc(F)cc3F)cn12 [Example 76]

Response given:
[7.47, 8.47, 9.70, 9.40, 9.40]

# batch: return pEC50 for each of the 6 compounds below
1. C[C@H]1CC[C@@]2(CNC(=O)C2)[C@H]2CN1C(=O)c1c(O)c(=O)c(C(=O)NCc3c(F)cc(F)cc3F)cn12 [Example 57]
2. C[C@H]1CC[C@@]2(Cc3ccccc3O2)[C@H]2CN1C(=O)c1c(O)c(=O)c(C(=O)NCc3c(F)cc(F)cc3F)cn12 [Example 144]
3. C[C@H]1CC[C@@]2(COCO2)[C@H]2CN1C(=O)c1c(O)c(=O)c(C(=O)NCc3c(F)cc(F)cc3F)cn12 [Example 131]
4. CCC1=NO[C@@]2(CC[C@H](C)N3C[C@H]2n2cc(C(=O)NCc4ccc(F)cc4F)c(=O)c(O)c2C3=O)C1 [Example 8]
5. C[C@H]1CC[C@]2(CC(=O)N(Cc3ccc4ncsc4c3)O2)[C@H]2CN1C(=O)c1c(O)c(=O)c(C(=O)NCc3c(F)cc(F)cc3F)cn12 [Example 112]
6. C[C@H]1CC[C@@]2(ON=C(CF)[C@@H]2O)[C@H]2CN1C(=O)c1c(O)c(=O)c(C(=O)NCc3c(F)cc(F)cc3F)cn12 [Example 88]

Response given:
1. 7.86
2. 10.00
3. 9.30
4. 9.70
5. 9.70
6. 9.52

# batch: return pEC50 for each of the 6 compounds below
1. C[C@H]1CC[C@]2(COCCO2)[C@H]2CN1C(=O)c1c(O)c(=O)c(C(=O)NCc3c(F)cc(F)cc3F)cn12 [Example 139]
2. [2H]C1C(OC)=NO[C@@]12CC[C@H](C)N1C[C@H]2n2cc(C(=O)NCc3c(F)cc(F)cc3F)c(=O)c(O)c2C1=O (stereo partly drawn) [Example 83]
3. C[C@H]1CC[C@]2(CC(=O)N(Cc3nc4ccccc4s3)O2)[C@H]2CN1C(=O)c1c(O)c(=O)c(C(=O)NCc3c(F)cc(F)cc3F)cn12 [Example 161]
4. C[C@H]1CC[C@]2(CC(=O)N(Cc3ccc(F)cc3)O2)[C@H]2CN1C(=O)c1c(O)c(=O)c(C(=O)NCc3c(F)cc(F)cc3F)cn12 (single isomer, unassigned) [Example 115]
5. C[C@H]1CC[C@@]2(CO2)[C@H]2CN1C(=O)c1c(O)c(=O)c(C(=O)NCc3c(F)cc(F)cc3F)cn12 [Example 166]
6. CC1=NO[C@]2(CC[C@H](C)N3C[C@H]2n2cc(C(=O)NCc4ccc(F)cc4F)c(=O)c(O)c2C3=O)C1C (stereo partly drawn) [Example 23]

Response given:
1: 10.00; 2: 9.52; 3: 9.40; 4: 9.52; 5: 9.70; 6: 9.30

# batch: return pEC50 for each of the 2 compounds below
1. COC1=NO[C@@]2(CC[C@H](C)N3C[C@H]2n2cc(C(=O)NCc4c(F)cc(F)cc4F)c(=O)c(O)c2C3=O)[C@H]1F [Example 87]
2. C[C@H]1CCC2(N=c3ccccc3=N2)[C@H]2CN1C(=O)c1c(O)c(=O)c(C(=O)NCc3c(F)cc(F)cc3F)cn12 [Example 142]

Response given:
1: 9.70; 2: 9.30

Challenge: Given COC1=NO[C@@]2(CC[C@H](C)N3C[C@H]2n2cc(C(=O)NCc4ncc(F)c(Cl)c4F)c(=O)c(O)c2C3=O)C1 [Example 64] , state its recorded pEC50.
Response given: 9.22

* * *

Tested on: HIV-1 (IIIB)
Experiment: microbe, parasite or virus in culture
Assay type: cell-based
Conditions: Human immunodeficiency virus 1, IIIB, MT4, 120 h, HIV-1 (IIIB) in MT-4 cells, 5 days incubation, Cell Titer Glo; read-out: MT4 EC50
For each of the molecules below, state its log10(EC50).
Heads up, the numbers here are log10 of EC50 in nM units.

Worked cases, answers included:
[[record]]
molecule = "COC1=NO[C@@]2(CC[C@H](CF)N3C[C@H]2n2cc(C(=O)NCc4c(F)cc(F)cc4F)c(=O)c(O)c2C3=O)C1 [Example 99]"
metric_name = "log10(EC50)"
readout_number = 0.18

[[record]]
molecule = "CCC1=NO[C@@]2(CC[C@H](C)N3C[C@H]2n2cc(C(=O)NCc4ccc(F)cc4F)c(=O)c(O)c2C3=O)C1 [Example 8]"
metric_name = "log10(EC50)"
readout_number = -0.10

[[record]]
molecule = "O=C(NCc1c(F)cc(F)cc1F)c1cn2c(c(O)c1=O)C(=O)N1CCCC[C@H]2C1 [Reference Compound A]"
metric_name = "log10(EC50)"
readout_number = 0.04

[[record]]
molecule = "C[C@H]1CC[C@@]2(CNC(=O)O2)[C@H]2CN1C(=O)c1c(O)c(=O)c(C(=O)NCc3c(F)cc(F)cc3F)cn12 [Example 59]"
metric_name = "log10(EC50)"
readout_number = 1.71

[[record]]
molecule = "C[C@H]1CC[C@]2(Cc3ccccc3O2)[C@H]2CN1C(=O)c1c(O)c(=O)c(C(=O)NCc3c(F)cc(F)cc3F)cn12 [Example 143]"
metric_name = "log10(EC50)"
readout_number = 0.15


# batch: return log10(EC50) for each of the 2 molecules below
1. C[C@H]1CC[C@]2(CC(=O)N(C)C2)[C@H]2CN1C(=O)c1c(O)c(=O)c(C(=O)NCc3c(F)cc(F)cc3F)cn12 [Example 61]
2. CO[C@@H]1CS[C@@]2(CC[C@H](C)N3C[C@H]2n2cc(C(=O)NCc4c(F)cc(F)cc4F)c(=O)c(O)c2C3=O)O1 (single isomer, unassigned) [170 (peak 4)]

Response given:
1: 0.88; 2: 0.23

# batch: return log10(EC50) for each of the 2 molecules below
1. CC1=NO[C@@]2(CC[C@H](C)N3C[C@H]2n2cc(C(=O)NCc4ccc(F)cc4F)c(=O)c(O)c2C3=O)[C@H]1O [Example 28]
2. C[C@H]1CC[C@]2(CC(=O)NO2)[C@H]2CN1C(=O)c1c(O)c(=O)c(C(=O)NCc3c(F)cc(F)cc3F)cn12 [Example 101]

Response given:
[-0.05, 1.99]
